biological target: Nucleoli Translocation, AR (gene 367) (UniProt P10275); assay: UPITT_HCI_U2OS_AR_TIF2_Nucleoli_Agonist: University of Pittsburgh U2OS Androgen Receptor-Transcriptional Intermediary Factor 2 (AR-TIF2) Agonism High Content Imaging Assay for Nucleoli Translocation (AID 2283998)
Sequence (P10275 whole entry, looked up): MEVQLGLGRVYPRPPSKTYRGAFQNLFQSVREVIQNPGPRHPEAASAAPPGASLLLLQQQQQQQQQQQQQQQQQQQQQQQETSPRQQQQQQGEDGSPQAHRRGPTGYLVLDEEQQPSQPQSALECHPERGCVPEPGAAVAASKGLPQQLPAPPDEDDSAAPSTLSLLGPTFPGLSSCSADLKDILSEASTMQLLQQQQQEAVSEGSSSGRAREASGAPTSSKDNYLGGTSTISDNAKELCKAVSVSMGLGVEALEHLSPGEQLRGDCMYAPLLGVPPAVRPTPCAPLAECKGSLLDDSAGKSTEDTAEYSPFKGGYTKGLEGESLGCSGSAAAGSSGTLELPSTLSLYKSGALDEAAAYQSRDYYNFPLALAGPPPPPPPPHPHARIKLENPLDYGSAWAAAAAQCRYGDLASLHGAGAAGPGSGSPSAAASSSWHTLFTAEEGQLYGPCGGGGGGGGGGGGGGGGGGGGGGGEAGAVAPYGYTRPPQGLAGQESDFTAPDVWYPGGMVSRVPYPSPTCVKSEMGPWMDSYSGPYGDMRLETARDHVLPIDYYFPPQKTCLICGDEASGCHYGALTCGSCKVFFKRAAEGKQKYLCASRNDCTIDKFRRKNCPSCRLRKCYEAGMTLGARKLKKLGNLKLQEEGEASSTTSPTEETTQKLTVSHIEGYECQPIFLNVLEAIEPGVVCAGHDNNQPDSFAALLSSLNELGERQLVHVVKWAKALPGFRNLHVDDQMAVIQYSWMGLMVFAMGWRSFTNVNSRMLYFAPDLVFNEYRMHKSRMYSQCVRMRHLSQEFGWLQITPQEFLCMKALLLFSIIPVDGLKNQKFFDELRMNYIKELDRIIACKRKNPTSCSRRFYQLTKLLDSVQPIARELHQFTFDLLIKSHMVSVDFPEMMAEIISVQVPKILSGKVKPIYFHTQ
Results filed as inconclusive are left out. Activity calls are given as the source filed them. The calls were made as follows: active = hit-call score of the fitted dose curve at least 0.9, where 1 is the maximum; inconclusive = response in the unintended direction; inactive = score below 0.9.
Measured Parameter: AC50

# Compound, AC50
rows = [
    ("COP(=O)(OC)O/C(=C\\Cl)c1cc(Cl)c(Cl)cc1Cl", "inactive"),
    ("O=c1[nH]c(=O)[nH]c(=O)[nH]1", "inactive"),
    ("O=C1C2(Cl)C3(Cl)C4(Cl)C(Cl)(Cl)C5(Cl)C3(Cl)C1(Cl)C5(Cl)C24Cl (stereo unspecified)", "12.7 µM (active)"),
    ("CN(CCCC(=O)c1cccnc1)N=O", "inactive"),
    ("C=CC(=O)OCCCCCC(C)C", "inactive"),
    ("Cl/C=C\\C[N+]12CN3CN(CN(C3)C1)C2", "inactive"),
    ("COP(=S)(OC)Oc1ccc(Sc2ccc(OP(=S)(OC)OC)cc2)cc1", "inactive"),
    ("Cc1ccc2ccccc2c1C", "inactive"),
]

Qu. State the recorded AC50 for this entry: CC12CC1(C)C(=O)N(c1cc(Cl)cc(Cl)c1)C2=O (stereo unspecified)
Ans. inactive

Qu. Item under review: CCSC(C)CC1CC(=O)C(C(CC)=NOC/C=C/Cl)=C(O)C1 (stereo unspecified) . Reported AC50?
Ans. inactive

Qu. Looking for the measured AC50 of C[C@H]1CCCC(=O)CCC/C=C/c2cc(O)cc(O)c2C(=O)O1 , can you help?
Ans. 80.6 µM (active)

---

target: Estrogen receptor (Homo sapiens) (UniProt P03372); assay: ATG_ERa_TRANS: Attagene TRANS-FACTORIAL HepG2 Assay for human Estrogen Receptor alpha (ERa) (AID 2282970); settings: HepG2 Attagene TRANS ERa GAL4 reporter, mRNA
Sequence (P03372 whole entry, looked up, the tested form may be a part): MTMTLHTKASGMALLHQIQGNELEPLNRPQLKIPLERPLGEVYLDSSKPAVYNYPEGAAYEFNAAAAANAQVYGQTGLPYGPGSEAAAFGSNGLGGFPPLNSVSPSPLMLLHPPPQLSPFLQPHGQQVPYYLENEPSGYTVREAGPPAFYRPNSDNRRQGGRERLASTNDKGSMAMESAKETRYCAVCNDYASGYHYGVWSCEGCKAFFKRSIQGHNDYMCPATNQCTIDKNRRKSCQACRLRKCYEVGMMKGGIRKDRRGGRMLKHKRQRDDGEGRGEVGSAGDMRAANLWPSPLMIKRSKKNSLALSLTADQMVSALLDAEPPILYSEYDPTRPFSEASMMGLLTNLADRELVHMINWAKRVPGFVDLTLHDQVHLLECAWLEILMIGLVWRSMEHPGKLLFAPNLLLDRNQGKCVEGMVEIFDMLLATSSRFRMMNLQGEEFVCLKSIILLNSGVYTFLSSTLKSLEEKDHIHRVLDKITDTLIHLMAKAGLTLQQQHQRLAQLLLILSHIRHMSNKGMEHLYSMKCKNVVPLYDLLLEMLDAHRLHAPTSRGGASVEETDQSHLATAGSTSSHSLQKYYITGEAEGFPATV
Inconclusive results are not listed. Activity calls are given as the source filed them. How the source made its calls: active means hit-call score of the fitted dose curve at least 0.9, where 1 is the maximum; inconclusive means response in the unintended direction; inactive means score below 0.9.
A correct response names exactly one class from active, inactive

Worked examples, 5 compounds total:
# Compound, Group Label
rows = [
    ("C[C@H]1CCCC(=O)CCC/C=C/c2cc(O)cc(O)c2C(=O)O1", "active"),
    ("O=C(OC1CCCCC1)c1ccccc1C(=O)OC1CCCCC1", "active"),
    ("O=C(c1ccccc1)C(Cl)Cl", "inactive"),
    ("ClCCBr", "inactive"),
    ("Nc1ccc(N=Nc2ccc(-c3ccc(N=Nc4c(S(=O)(=O)O)cc5cc(S(=O)(=O)O)c(N=Nc6ccccc6)c(O)c5c4N)cc3)cc2)c(N)c1", "active"),
]

Qu. What outcome does the record of this test show for ClC1=C(Cl)[C@]2(Cl)[C@H]3[C@H]([C@H]4C=C[C@H]3C4)[C@@]1(Cl)C2(Cl)Cl ?
Ans. active

---

read-out: Tissue Factor, F3 (gene 2152); assay: BSK_LPS_TissueFactor: BioMAP Diversity Plus: LPS Assay for Tissue Factor Biomarker Activity (AID 2283084); conditions: primary human HUVEC with PBMC; actives raise or lower the signal
The source made the active and inactive calls. How the source made its calls: active means hit-call score of the fitted dose curve at least 0.9, where 1 is the maximum; inactive means score below 0.9.
Choose the fitting class; nothing outside yes (active), no (inactive) is accepted.

# Molecule, Group Label
measured = [
    ("COP(=S)(OC)Oc1ccc(S(=O)(=O)N(C)C)cc1", "no"),
]

Qu. Test call, this molecule: Oc1cccc2cccnc12
Ans. no

Qu. Recorded test call requested for CCCCCCCCC(=O)NCc1ccc(O)c(OC)c1
Ans. no

Qu. What outcome does the record of this test show for ClC1=C(Cl)[C@]2(Cl)[C@H]3[C@H]([C@H]4C=C[C@H]3C4)[C@@]1(Cl)C2(Cl)Cl ?
Ans. no

---

Assay: ATG_VDRE_CIS: Attagene CIS-FACTORIAL HepG2 Assay for human Vitamin D Receptor Element (VDRE) (AID 2282968)
Conditions: HepG2 VDRE cis-reporter transcription, actives raise or lower the signal
Procedure: ATG_CIS is a cell-based, multiplexed-readout assay that uses HepG2, a human liver cell line, with measurements taken at 24 hours after chemical dosing in a 24-well plate.ATG_VDRE_CIS is one of 52 assay component(s) measured or calculated from the ATG_CIS assay. […] This assay endpoint, ATG_VDRE_CIS, was analyzed with bidirectional fitting relative to DMSO as the negative control and baseline of activity. […]
Calls of active or inactive are those of the source. The calls were made as follows: active = hit-call score of the fitted dose curve at least 0.9, where 1 is the maximum; inactive = score below 0.9.
Pick one: 1 (yes) (active), 0 (no) (inactive)

Sample answers from the record:
# Smiles Data, Group Label
measured = [
    ("CC(=[OH+])/C=C(/C)[O-].CC(=[OH+])/C=C(/C)[O-].CC(=[OH+])/C=C(/C)[O-].[Al]", "0 (no)"),
    ("COP(=S)(OC)Oc1c(Cl)cc(C)cc1Cl", "1 (yes)"),
]

Qu. Just curious, what result did C[C@H]1O[C@@H](O[C@H]2[C@@H](O)C[C@H](O[C@H]3[C@@H](O)C[C@H](O[C@H]4CC[C@@]5(C)[C@H](CC[C@@H]6[C@@H]5CC[C@]5(C)[C@@H](C7=CC(=O)OC7)CC[C@]65O)C4)O[C@@H]3C)O[C@@H]2C)C[C@H](O)[C@@H]1O get here?
Ans. 0 (no)

---

read-out: Intercellular Adhesion Molecule 1 (ICAM1), ICAM1 (gene 3383); assay: BSK_KF3CT_ICAM1: BioMAP Diversity Plus: KF3CT Assay for Intercellular Adhesion Molecule 1 (ICAM1) Biomarker Activity (AID 2283067); details: primary human keratinocytes with fibroblasts; actives raise or lower the signal
Active and inactive are the calls of the source. The calls were made as follows: active = hit-call score of the fitted dose curve at least 0.9, where 1 is the maximum; inactive = score below 0.9.
Choose one outcome from this list and give only that: 1 for active, 0 for inactive

# Smiles Data, Group Label
data = [
    ("COP(=S)(OC)Oc1cc(Cl)c(Cl)cc1Cl", 0),
    ("CC(C)(C)c1cc(O)ccc1O", 1),
]

--- query ---
Qu. Hi team, can someone confirm the assay call for CC(=O)[O][Hg][c]1ccccc1 ?
Ans. 1

---

assay: ATG_NRF2_ARE_CIS: Attagene CIS-FACTORIAL HepG2 Assay for human Nuclear Factor Erythroid 2 Related Factor 2 (NFR2) response to Antioxidant Response Elements (ARE) (AID 2282992); details: HepG2 Attagene ARE/NRF2 reporter, transcription factor activity; actives raise or lower the signal
Calls of active or inactive are those of the source. The calls were made as follows: active = hit-call score of the fitted dose curve at least 0.9, where 1 is the maximum; inactive = score below 0.9.
Choose the fitting class; nothing outside active, inactive is accepted.

Would you please look over these solved cases?
# Compound, Group Label
data = [
    ("CC(=O)OC(c1ccccc1)C(Cl)(Cl)Cl (stereo not given)", "inactive"),
    ("CCC[CH2][Sn]([Cl])([Cl])[Cl]", "active"),
    ("C=C(C)C#N", "inactive"),
    ("N#CCCO", "inactive"),
    ("Cc1ccc(N)cc1Cl", "inactive"),
    ("CNC", "inactive"),
]

As a next step, examine the compound that follows.
Qu. Please state the recorded outcome for this compound: ClCC(Cl)CCl
Ans. inactive

---

read-out: Urokinase-type plasminogen activator receptor (uPAR), PLAUR (gene 5329); test: BSK_BE3C_uPAR: BioMAP Diversity Plus: BE3C Assay for Urokinase-type plasminogen activator receptor (uPAR) Biomarker Activity (AID 2283039); details: primary human bronchial epithelial cells; actives raise or lower the signal;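 as to outcome: uPAR protein level measured by ELISA on the cells; cells exposed to compound for one day before measurement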
Active and inactive are the calls of the source. Rule for the calls: active = hit-call score of the fitted dose curve at least 0.9, where 1 is the maximum; inactive = score below 0.9.
Please reply with one of these outcomes: yes (1) = active, no (0) = inactive

Qu. Given CCC(C)(C)c1ccc(O)c(C(C)(C)CC)c1 , state the outcome it received in this test.
Ans. yes (1)

Qu. GET /call?item= BrCCBr returns the recorded outcome of this test.
Ans. no (0)

Qu. What did this assay record as the result for CCCCCCCCc1ccc(O)cc1 ?
Ans. yes (1)

Qu. Entry COP(=S)(OC)Oc1cc(Cl)c(Cl)cc1Cl : call = ?
Ans. no (0)

Qu. Would you mind telling me which call this test gave Oc1c(I)cc(I)cc1I ?
Ans. yes (1)

Qu. Check the results log: what was the call for ClC1=C(Cl)[C@]2(Cl)[C@H]3[C@H]([C@H]4C=C[C@H]3C4)[C@@]1(Cl)C2(Cl)Cl ?
Ans. no (0)

Qu. # outcome recorded in this test, key = Nc1ncc([N+](=O)[O-])s1
Ans. no (0)

Qu. State the result this test recorded for ClC(Cl)=C(Cl)C(Cl)=C(Cl)Cl .
Ans. no (0)

Qu. Entry CN(C)N=O : call = ?
Ans. no (0)

---

test: ATG_EGR_CIS: Attagene CIS-FACTORIAL HepG2 Assay for human Early Growth Response 1 (EGR1) (AID 2282938); settings: HepG2 Attagene CIS-FACTORIAL EGR reporter mRNA; actives raise or lower the signal
Calls of active or inactive are those of the source. Rule for the calls: active = hit-call score of the fitted dose curve at least 0.9, where 1 is the maximum; inactive = score below 0.9.
Measured Parameter: AC50

Completed entries (count: 5):
# Compound, AC50
records = [
    ("CCSC(C)CC1CC(=O)C(C(CC)=NOC/C=C/Cl)=C(O)C1 (stereo not given)", "inactive"),
    ("CCN1CCC2(CC1)COc1cc3c(cc12)N(C(=O)c1ccc(-c2ccc(-c4nnc(C)o4)cc2C)cc1)CC3", "inactive"),
    ("CCC1(c2ccc(N)cc2)CCC(=O)NC1=O (stereo not given)", "inactive"),
    ("O=C1C(Cl)=C(Cl)C(=O)c2ccccc21", "inactive"),
    ("COP(=S)(OC)Oc1ccc(Sc2ccc(OP(=S)(OC)OC)cc2)cc1", "29.8 µM (active)"),
]

Qu. Consider the compound shown here: ClCCBr What is its recorded AC50?
Ans. inactive

Qu. For the compound CCCCCCCCCl , what AC50 is on record?
Ans. inactive

Qu. Looking for the measured AC50 of CC(=O)[O][Hg][c]1ccccc1 , can you help?
Ans. 4.73 µM (active)

Qu. Would you kindly share the measured AC50 for O=C(OC1CCCCC1)c1ccccc1C(=O)OC1CCCCC1 ?
Ans. 25.1 µM (active)

Qu. What measured AC50 goes with CCC(C)(C)c1ccc(O)c(C(C)(C)CC)c1 ?
Ans. inactive

Source: PubChem BioAssay (EPA / NIEHS)
